TGI values for the compounds below.
Test system: T-47D breast
Assay: NCI tumour cell line growth inhibition, 48 h

# annotated cases, reported TGI shown
{"compound": "COC(=O)c1ccccc1C#CC#Cc1ccccc1C(=O)OC", "tested.on": "T-47D breast", "measurement.kind": "TGI", "value": "> 10 µM"}
{"compound": "O=C(c1ccc2ncc(-c3nc(NC4CC4)ncc3F)n2c1)N1CCOCC1", "tested.on": "T-47D breast", "measurement.kind": "TGI", "value": "7.49 µM"}
{"compound": "O=C1/C(=C\\c2cccc(Oc3ccccc3)c2)S(=O)(=O)C(c2ccccc2)N1c1ccccc1Cl (centres undefined)", "tested.on": "T-47D breast", "measurement.kind": "TGI", "value": "> 100 µM"}

Kindly consider the entry below.
Query block: Please report the recorded TGI for CC(=O)N1CCc2c([nH]c3ccc(Br)cc23)C1c1ccccc1 (centres undefined) .
Result block: > 10 µM

---

Test system: HCC-2998 colon
Assay: NCI tumour cell line growth inhibition, 48 h
Items are presented alongside their recorded TGI.

Past entries and their recorded results:
{"structure.smiles.string": "Cc1cc(-c2[nH]c(C(=O)O)cc2I)on1", "TGI": "> 100 µM"}
{"structure.smiles.string": "CCN(CC)CCCOC(=O)/C=C/c1c(C)[nH]c(=O)[nH]c1=O", "TGI": "> 625 µM"}

Switching to the query record.
Query block: Request the reported TGI associated with `O=C(Nc1nc2ccccc2n1Cc1ccccc1)NC12CC3CC(CC(C3)C1)C2`
Result block: > 100 µM

---

Test system: COLO 205 colon
Experiment: NCI tumour cell line growth inhibition, 48 h
Some molecules, each annotated with its measured TGI.
Report only the number, with the unit µM understood.

// worked examples, TGI included
{"molecule": "CCOC(=O)c1[nH]c(-c2ccc(Cl)cc2)cc1-c1cccnc1", "value": 7.49}
{"molecule": "COc1cc(/C=C\\[N+](=O)[O-])ccc1OCc1ccccc1", "value": 3.37}
{"molecule": "Clc1nc(Cl)c(Cl)c(Cl)n1", "value": 24.1}
{"molecule": "C(CCC[Te][Te]CCCCCCOC1CCCCO1)CCOC1CCCCO1 (centres undefined)", "value": 36.5}
{"molecule": "COC(=O)c1ccccc1C#CC#Cc1ccccc1C(=O)OC", "value": 3.28}
{"molecule": "CCCCCCCCCCN(CCCCCCCCCC)CC(=O)c1ccc2cc(Br)c3ccccc3c2c1", "value": 3.16}

Query block: Param readout= TGI; system= COLO 205 colon; entry= `[Se]=P(c1ccccc1)(c1ccccc1)c1ccc(C(c2ccccc2)=P(c2ccccc2)(c2ccccc2)c2ccccc2)cc1` ; returns value.
Result block: 0.659

Query block: Checklist item: TGI tested on COLO 205 colon, entry `Clc1ccc2[nH]cc(-c3nc(-c4c[nH]c5ncccc45)cs3)c2c1` , value?
Result block: 13.3

---

System: CAKI-1 renal
Assay: NCI tumour cell line growth inhibition, 48 h
Entries and their TGI values follow.

Worked set:
{"molecule": "C=CC1ON(Cc2ccccc2)CCc2cc(OC)c(OC)cc21 (configuration not stated)", "tested.on": "CAKI-1 renal", "TGI": "> 100 µM"}
{"molecule": "Clc1cc2c(c(CSC3=NCN(CC4CC4)CN3)c1)OCOC2", "tested.on": "CAKI-1 renal", "TGI": "> 100 µM"}
{"molecule": "CC(=O)N1CCc2c([nH]c3ccc(Br)cc23)C1c1ccccc1 (configuration not stated)", "tested.on": "CAKI-1 renal", "TGI": "> 10 µM"}
{"molecule": "c1ccc(-c2sc(-c3cccs3)cc2Cc2cccs2)cc1", "tested.on": "CAKI-1 renal", "TGI": "> 10 µM"}
{"molecule": "COC(=O)c1sc(C(=O)OC)c2c1CSC2", "tested.on": "CAKI-1 renal", "TGI": "> 100 µM"}
{"molecule": "O=C1NC(N/N=C\\C(O)C(O)C(O)CO)=N/C1=C/c1ccc(Cl)cc1 (configuration not stated)", "tested.on": "CAKI-1 renal", "TGI": "> 100 µM"}

With those in mind, consider the next molecule.
Query block: Tell me the measured TGI of O=c1/c(=C\c2ccccc2)sc2n1C(c1ccccc1)C1(O)CCCCC1N=2 (configuration not stated) , please.
Result block: > 100 µM
